Assay: NCI Yeast Anticancer Drug Screen. Data for the sgs1 mgt1 strain (AID 161);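 note: 0% = growth of cultures given vehicle only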
Conditions: S. cerevisiae sgs1 mgt1 strain, at 50.0 µM, stronger effect = higher value
This is part of a sample that, as a whole, favours compounds with a hit. Of some 79,000 tested, about 15% had one in any assay.
Answer each item with its documented growth inhibition.
Answers are plain numbers, in %.

Use these answered entries as a reference point.
• N/C(CC(=O)NOC(=O)c1ccccc1)=N/OC(=O)c1ccccc1 = 99.5
• O=C1OC(=O)c2ccc(S)c3cccc1c23 = 38.6
• O=C(O)c1ccccc1-c1c2ccc(=O)c(Br)c-2oc2c(Br)c(O)ccc12 = 99.5

Quick one: give me growth inhibition for each item below, same order please.
1. CN(C)c1ccc2c(NCCCCCCNc3ccnc4cc(N(C)C)ccc34)ccnc2c1
2. CCCC/C=C1\CCC(CN2CCOCC2)C1=O (stereo unspecified)
3. CC(C)(CN1CCCCC1)C(=O)CC(SCCS(=O)(=O)O)c1ccc(Cl)c(Cl)c1 (stereo unspecified)

A.
1. 53.4
2. 91.4
3. 97.4
